Study System: Cytochrome P450 1A2 (Homo sapiens, UniProt P05177); further: in other assays of this panel Not Active means under 50% inhibition at 10 µM
Sequence (P05177 whole entry): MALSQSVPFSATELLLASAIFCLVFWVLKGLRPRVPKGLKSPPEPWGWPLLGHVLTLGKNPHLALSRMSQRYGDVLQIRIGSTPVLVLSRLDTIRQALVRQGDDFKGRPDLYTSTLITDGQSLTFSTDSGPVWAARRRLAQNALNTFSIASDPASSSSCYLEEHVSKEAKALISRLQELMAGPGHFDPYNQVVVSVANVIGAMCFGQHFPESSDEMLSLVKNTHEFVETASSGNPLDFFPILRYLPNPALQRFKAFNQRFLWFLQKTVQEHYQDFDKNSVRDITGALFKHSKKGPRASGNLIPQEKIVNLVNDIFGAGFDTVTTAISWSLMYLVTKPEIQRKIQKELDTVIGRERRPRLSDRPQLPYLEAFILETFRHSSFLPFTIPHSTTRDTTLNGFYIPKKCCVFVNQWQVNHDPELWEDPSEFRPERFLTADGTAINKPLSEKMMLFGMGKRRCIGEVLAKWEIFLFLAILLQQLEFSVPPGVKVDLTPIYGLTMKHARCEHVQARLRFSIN
Reported Conditions: bti-tn-5b1-4
Where a SMILES comes first, the peptide text is derived from it. Bridges are numbered along the chain shown (N, C = ends). [ ]: non-standard residue; d: D form. The star is where a group is joined. Threoninol(2S,3R) = C[C@@H](O)[C@H](CO)N*
Measured Property: Ki

Compound	Reported
COc1ccccc1C(=O)N1CCC(Cc2ccccc2)CC1	Not Active
CC(=O)Nc1c(I)c(NC(C)=O)c(I)c(C(=O)O)c1I [DIATRIZOIC ACID]	Not Active
N=C(N)NC(=O)c1nc(Cl)c(N)nc1N [AMILORIDE]	Not Active
Nc1c(CC(=O)O)cccc1C(=O)c1ccc(Br)cc1 [BROMFENAC]	Not Active
CC(=O)N[C@@H]1[C@H](Oc2c3cc4cc2Oc2ccc(cc2Cl)[C@@H](O[C@@H]2O[C@@H](CO)[C@@H](O)[C@H](O)[C@@H]2NC(C)=O)[C@@H]2NC(=O)[C@H](NC(=O)[C@@H]4NC(=O)[C@H]4NC(=O)[C@@H](Cc5ccc(c(Cl)c5)O3)NC(=O)[C@H](N)c3ccc(O)c(c3)Oc3cc(O)cc4c3)c3ccc(O)c(c3)-c3c(O[C@H]4O[C@H](CO)[C@@H](O)[C@@H](O)[C@@H]4O)cc(O)cc3[C@@H](C(=O)O)NC2=O)O[C@@H](CO)[C@@H](O)[C@@H]1O	Not Active

Fill blank: measured Ki of the compound Cc1nccn1CC1CCc2c(c3ccccc3n2C)C1=O (stereo not given) [ONDANSETRON] is ____.
Not Active

Record request: Ki value, item CC[C@@H](CO)NCCN[C@@H](CC)CO [ETHAMBUTOL]
Not Active

Given the entry CCOC(=O)[C@H](CCc1ccccc1)N[C@H]1CCc2ccccc2N(CC(=O)O)C1=O [BENAZEPRIL] , report its measured Ki.
Not Active

Sample Cc1cccc(Nc2ccncc2S(=O)(=O)NC(=O)NC(C)C)c1 [TORSEMIDE] — what was its Ki?
Not Active

What Ki value was documented for this compound, CCCC(CCC)C(=O)O [VALPROIC ACID] ?
Not Active

Which measured Ki value corresponds to C[C@H]1C[C@H]2[C@@H]3CCC4=CC(=O)C=C[C@]4(C)[C@@]3(Cl)[C@@H](O)C[C@]2(C)[C@@]1(O)C(=O)CO [BECLOMETHASONE] ?
Not Active

Give the measured Ki of C[C@@]12C(=O)OC(=O)[C@]1(C)[C@H]1CC[C@@H]2O1 [CANTHARIDIN] .
Not Active

Quick one: Ki for C[C@@H](O)[C@H](CO)NC(=O)[C@@H]1CSSC[C@H](NC(=O)[C@H](N)Cc2ccccc2)C(=O)N[C@@H](Cc2ccccc2)C(=O)N[C@H](Cc2c[nH]c3ccccc23)C(=O)N[C@@H](CCCCN)C(=O)N[C@@H]([C@@H](C)O)C(=O)N1 (H-[dF]CF[dW]KTC-{Threoninol(2S,3R)}; disulfide 2-7) ?
Not Active

Give its Ki value. Item: CCCN(CCC)C(=O)C(CCC(=O)O)NC(=O)c1ccccc1 (stereo not given) [PROGLUMIDE]
Not Active

Form field: reported Ki of CN1C(C(=O)Nc2ccccn2)=C(O)c2sccc2S1(=O)=O [TENOXICAM]
Not Active
